Test: drug combination growth inhibition, ovarian cancer – cell-based, oncology-focused library, rucaparib conditional, profiling panel (AID 1508598)
Conditions: patient-derived ovarian cancer cells, CellTiter-Glo viability, 144 h; at 0.0781 µM; OCI-C5x cells; with rucaparib 10 µM; 100% = cells with rucaparib alone
The source made the active and inactive calls.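 Rule for the calls: active = normalized viability below 100% at a tested concentration; inactive = the rest.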
Mark one answer only. Choices: active, inactive

Previously resolved entries follow.
INSERT INTO results (compound_string, assigned_label) VALUES
  ('C[C@@]1(c2nc3c(C(N)=O)cccc3[nH]2)CCCN1', 'inactive'),
  ('COc1ccccc1-c1cc(Nc2cccc(CS(N)(=O)=O)c2)ncn1', 'inactive'),
  ('COc1cc(C(=O)NC2CCN(C)CC2)ccc1Nc1ncc2c(n1)N(C1CCCC1)CC(F)(F)C(=O)N2C', 'active'),
  ('CCOc1ccc(Cc2cc([C@@H]3O[C@H](CO)[C@@H](O)[C@H](O)[C@@H]3O)ccc2Cl)cc1', 'inactive');

Next compound, please.
What outcome does the record of this test show for `C[C@]12CCC(=O)C=C1CC[C@@H]1[C@H]2[C@H](O)C[C@@]2(C)[C@H]1CC[C@@]2(O)C(=O)CO` ?
inactive

###

Assay: viability loss with induced miR-34 in A549 – imaging, A549 dox-inducible miR-34, nuclei and caspase counts, primary screen (AID 1347080)
Settings: A549 miR-34 inducible, Hoechst nuclei count, 48 h; measured here: total cells with miR-34 induction; stronger effect = lower value
Below, each of the molecules is paired with its reported cell count value.
API doc: respond with a numeric literal and nothing else, no unit.

Guide cases for cell count, answers given:
INSERT INTO measurements (molecule, recorded_endpoint, value_measured) VALUES
  ('COCCOC(=O)C1=C(C)NC(C)=C(C(=O)OCC=Cc2ccccc2)C1c1cccc([N+](=O)[O-])c1 (stereo not given)', 'cell count', 6590),
  ('Nc1nc(=O)n([C@@H]2CS[C@H](CO)O2)cc1F', 'cell count', 10100),
  ('NC(N)=NC(N)=Nc1cc(C(F)(F)F)ccc1Cl', 'cell count', 7310),
  ('CCOc1cc2ncc(C#N)c(Nc3ccc(F)c(Cl)c3)c2cc1NC(=O)C=CCN(C)C', 'cell count', 681),
  ('O=C(NCCOc1cccnc1)c1ccc2ncsc2c1', 'cell count', 7900),
  ('COc1cc(C=CC(=O)N2CCN(CC(=O)N3CCCC3)CC2)cc(OC)c1OC', 'cell count', 8470),
  ('NC[C@H]1O[C@@H](n2cnc3c(N)ncnc32)[C@H](O)[C@@H]1O', 'cell count', 9860),
  ('O=C(c1cccc2nccnc12)N1CCc2[nH]nc(COc3ccccc3)c2C1', 'cell count', 8640);

Looking for the measured cell count of `O=C(NCC1(c2nc(-c3ccccc3)cs2)CCOCC1)c1cccc(-c2noc(C(F)(F)F)n2)c1` , can you help?
6620

Subsequent entry: `CCCC(=O)Nc1cccc(NC(=O)c2ccccc2Br)c1`
7570

###

Assay: drug combination growth inhibition, ovarian cancer – cell-based, oncology-focused library, rucaparib conditional, profiling panel (AID 1508598)
Conditions: patient-derived ovarian cancer cells, CellTiter-Glo viability, 144 h; at 0.0195 µM; OCI-C5x cells; with rucaparib 10 µM; 100% = cells with rucaparib alone
Calls of active or inactive are those of the source.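 Rule for the calls: active = normalized viability below 100% at a tested concentration; inactive = the rest.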
Mark one answer only. Choices: true (1) (active), false (0) (inactive)

INSERT INTO results (compound_string, assigned_label) VALUES
  ('c1ccc(Cn2c(-c3ccc(OC[C@H](C4CCNCC4)n4c(-c5ccccc5)nc5ccccc54)cc3)nc3ccccc32)cc1', 'false (0)');

What outcome does the record of this test show for `O=C(O)c1cc(I)ccc1NC(=O)[C@H](Cc1ccccc1)NCc1ccccc1` ?
false (0)

Subsequent entry: `C[C@]12CC[C@H]3c4ccc(O)cc4CC[C@H]3[C@@H]1CC[C@H]2O`
true (1)

Subsequent entry: `C[C@]12C=CC(=O)C=C1CC[C@@H]1[C@H]2C(=O)C[C@@]2(C)[C@H]1CC[C@@]2(O)C(=O)CO`
false (0)

###

Below, each of the molecules is paired with its reported fold fluorescence value.
Test: chitosan synthesis blockers in C. neoformans – flow cytometry, Cibacron Brilliant Red staining (AID 1347148);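 note: compound exposure lasted three days at 37 degrees C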
Details: Cryptococcus neoformans chitosan, stronger effect = lower value; at 10 µM unless noted
The source made the active and inactive calls. How the calls were made is not given here. Peptide text beside a SMILES is read from it. * marks the point of attachment. Boc = CC(C)(C)OC(=O)*

Guide cases for fold fluorescence, answers given:
INSERT INTO results (molecule, recorded_endpoint, value_measured) VALUES
  ('CC(C)[C@H](NC(=O)CNC(=O)OC(C)(C)C)C(=O)N[C@H](C=O)C(C)C (Boc-Gly-Val-Val-aldehyde)', 'fold fluorescence', '10.2 [at 139.9 µM] (inactive)'),
  ('CCCCCCCC/C=C\CCCCCCCC(=O)OC[C@H](CO)OC(=O)CCCCCCC/C=C\CCCCCCCC', 'fold fluorescence', '4.1 (inactive)'),
  ('Nc1ncnc2c1nc(Br)n2C1O[C@H]2COP(=O)(O)O[C@@H]2[C@@H]1O (some centres not stated)', 'fold fluorescence', '3.88 [at 122.5 µM] (inactive)');

Looking for the measured fold fluorescence of `CCCCCCCCCCCCCCCCOC[C@@H](COP(=O)([O-])OCC[N+](C)(C)C)OC` , can you help?
4.86 (inactive)

Subsequent entry: `CC[C@H]1/C=C(\C)C[C@@H](C)C[C@@H](OC)[C@@H]2O[C@](O)(C(=O)C(=O)N3CCCC[C@@H]3C(=O)O[C@@H](/C(C)=C/[C@H]3CC[C@H](O)[C@@H](OC)C3)[C@@H](C)[C@H](O)CC1=O)[C@@H](C)C[C@H]2OC`
13.8 [at 63.1 µM] (inactive)

Subsequent entry: CCCCC/C=C\C\C=C/C=C/C=C/[C@@H](SCC(NC(C)=O)C(=O)O)[C@@H](O)CCCC(=O)O (some centres not stated)
4.05 [at 1 µM] (inactive)

Subsequent entry: `NC(=NCc1ccc(Cl)cc1Cl)NC(=O)c1nc(Cl)c(N)nc1N`
10.2 [at 117.6 µM] (inactive)

Subsequent entry: `Nc1cc(N2CCCCC2)nc(N)[n+]1OS(=O)(=O)[O-]`
3.52 [at 172.8 µM] (inactive)

Subsequent entry: `CCCCC[C@H](O)CC(=O)CCc1ccc(O)c(OC)c1`
5.62 [at 169.8 µM] (inactive)

Subsequent entry: `CN([C@@H](Cc1ccc(OS(=O)(=O)c2cccc3cnccc23)cc1)C(=O)N1CCN(c2ccccc2)CC1)S(=O)(=O)c1cccc2cnccc12`
3.04 [at 69.3 µM] (inactive)

###

Assay: MELAS cybrid and Rieske KO viability enhancers – cell-based, MELAS cybrids, Rieske KO mouse fibroblasts, CellTiter-Glo, primary screen (AID 1508586);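 note: z relative to plate mean and SD of compound and empty wells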
Details: MELAS cybrid survival, low glucose, CellTiter-Glo 48 h
Activity calls are given as the source filed them.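 The calls were made as follows: active = mean z-score across replicates of 1.96 or higher in either the MELAS or the Rieske mutant cell line; inactive = the rest.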
Mark one answer only. Choices: yes (1) for active, no (0) for inactive

INSERT INTO results (compound, assigned_label) VALUES
  ('Cc1c(CN2CCN(C(=O)C(C)O)CC2)sc2c(N3CCOCC3)nc(-c3cnc(N)nc3)nc12 (configuration not stated)', 'yes (1)');

What outcome does the record of this test show for O=c1ncccn1C1OC(CO)C(O)C1O (configuration not stated) ?
no (0)

Subsequent entry: `Cc1nnc(CN(C)C(=O)c2cc(-c3ccc(C)s3)cc(S(=O)(=O)N3CCOCC3)c2)o1`
no (0)

Subsequent entry: `CSc1ccccc1C(=O)N1CCc2[nH]nc(COc3ccccc3)c2C1`
no (0)

Subsequent entry: CN(C)C(=O)c1ccc(S(=O)(=O)c2ccc(NC(=O)C(C)(O)C(F)(F)F)c(Cl)c2)cc1 (configuration not stated)
no (0)

Subsequent entry: `Cc1cc(-c2cc3c(n(C)c2=O)CCN(Cc2c(C)nc4sccn24)C3)ccc1F`
no (0)

Subsequent entry: OCC1OC(Oc2ccc(O)cc2)C(O)C(O)C1O (configuration not stated)
no (0)

###

Below, each of the compounds is paired with its reported inhibition value.
Assay: growth inhibition, single agents and combos, CRL2098, cell-based, BGB or cisplatin IC20 combos, synergistic combos for chromothripsis tumors (AID 1671454);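 note: cells exposed for 96 h before readout; 0% = vehicle DMSO and 100% = killing by high DMSO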
Conditions: CRL2098 osteosarcoma cells, drug combinations, at 0.5 µM, stronger effect = higher value
Active and inactive are the calls of the source. Cut-off read from the data, not from the text of the source: active = inhibition above about 80%; inactive = the rest.

Guide cases for inhibition, answers given:
INSERT INTO assay_data (compound, value_measured) VALUES
  ('O=c1cc(-c2ccc(O)cc2)[nH]c(=S)[nH]1', '-53% (inactive)'),
  ('CCC(Sc1nnc2c3ccccc3n(CC)c2n1)C(=O)Nc1ccccc1OC (stereo not given)', '-23.4% (inactive)'),
  ('CC(C)(C#N)c1ccc(N2C(=O)OCc3cnc4ccc(-c5cnc6ccccc6c5)cc4c32)cc1', '-42.5% (inactive)');

Looking for the measured inhibition of `Cc1cc(C)c(Nc2ccnc(Nc3ccc(C#N)cc3)n2)c(C)c1` , can you help?
-8.33% (inactive)

Subsequent entry: CC1OC(CC(=O)O)CC2=C1C(=O)c1c(O)cccc1C2=O (stereo not given)
100% (active)

Subsequent entry: C=CC1=C(C)C2=CC3=NC(=C(CC(=O)O)C4=NC(=C(C)C4=C(O)O)C=c4[nH]c(c(C)c4CC)=CC1=N2)C(CCC(=O)O)C3C (stereo not given)
-39.9% (inactive)

Subsequent entry: CCC1(O)C(=O)OCc2c1cc1n(c2=O)Cc2cc3cc(O)ccc3nc2-1 (stereo not given)
43.5% (inactive)

Subsequent entry: COc1cccc2c1C(=O)c1c(O)c3c(c(O)c1C2=O)CC(O)(C(C)=O)CC3OC1CC(N)C(O)C(C)O1 (stereo not given)
99.4% (active)

Subsequent entry: `Cc1cc(C)cc(C(=O)NOCCCCCC(=O)NO)c1`
-44.3% (inactive)

Subsequent entry: Nc1ncn(C2OC(CO)C(O)C2O)c(=O)n1 (stereo not given)
-21% (inactive)
